# Test target: human IL-17A/F heterodimer (human, UniProt Q16552 24-155; Q96PD4 31-163, limits assumed, biotinylated with Sulfo-NHS-LC-Biotin in the AlphaScreen assays only)
# Sequence (Q16552 24-155 limits assumed, chain 1 of 2): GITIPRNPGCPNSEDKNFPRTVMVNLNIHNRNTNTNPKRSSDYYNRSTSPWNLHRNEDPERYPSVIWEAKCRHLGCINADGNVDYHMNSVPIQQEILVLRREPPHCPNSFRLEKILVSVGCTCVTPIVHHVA
# Sequence (Q96PD4 31-163 limits assumed, chain 2 of 2): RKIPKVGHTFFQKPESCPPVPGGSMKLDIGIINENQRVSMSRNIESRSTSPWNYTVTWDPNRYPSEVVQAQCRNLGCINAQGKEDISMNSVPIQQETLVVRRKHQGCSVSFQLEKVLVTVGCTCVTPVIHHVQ
# Assay details: cell-based or functional assay
Threshold check on IL-17A/F-induced IL-6 production in HT-1080 cells, IC50: at or above 50 nM gives YES, strictly below gives NO.

>  <Binder>
09D10 (VHH, Class 2 Nanobody (anti-IL-17A and IL-17A/F); not shown: c-myc, His6 tag) VHH: EVQLVESGGGLVQAGGSLSLSCAASGSVFRIDVMRWHRQAPGKQREFLASIASGGTTNYADSVKGRFTISRDNAKNTVYLQMNSLKPEDTAVYYCGANAESGPYTYWGLGTQVTVSS

>  <Label>
YES

$$$$
>  <Binder>
13E02 (VHH, Class 4 Nanobody (cross-reactive: anti-IL-17A, IL-17F and IL-17A/F); also called IL17MS13E02; not shown: c-myc, His6 tag) VHH: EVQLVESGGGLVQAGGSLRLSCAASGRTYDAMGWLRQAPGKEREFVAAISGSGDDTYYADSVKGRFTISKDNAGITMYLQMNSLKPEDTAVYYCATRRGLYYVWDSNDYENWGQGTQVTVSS

>  <Label>
NO

$$$$
>  <Binder>
17C01 (VHH, Class 4 Nanobody (cross-reactive: anti-IL-17A, IL-17F and IL-17A/F); not shown: c-myc, His6 tag) VHH: EVQLVESGGRLVQAGGSLRLPCAASGRTFTSYPMGWFRQAPGKEREFVAAISMSGDDAAYADFVRGRFTISRDDARNTVYLHMTSLKPEDTAVYYCAARTSYDGTYDYIDDYSYWGQGTQVTVSS

>  <Label>
NO

$$$$
>  <Binder>
16A04 (VHH, Class 3 Nanobody (anti-IL-17F); also called IL17MS16A04; not shown: c-myc, His6 tag) VHH: EVQLVESGGGLVQAGGSLRLSCAASGRTFSSYVVGWFRQAPGKEREFIGAISGSGDSIYYAVSEKDRFTISRDNGKNTLYLQMSSLKAEDTAVYYCTADQEFGYLRFGRSEYWGQGTQVTVSS

>  <Label>
NO

$$$$
>  <Binder>
02A10 (VHH, Class 2 Nanobody (anti-IL-17A and IL-17A/F); not shown: c-myc, His6 tag) VHH: EVQLVESGGGLVQPGGSLRLSCAASGFALGYYAIGWFRQAPGKEREGVSCDSSSDGRTYYGDSVKGRFTISTDSAKNTVYLQMNSLKPEDTAVYYCATCTDFEYDYWGQGTQVTVSS

>  <Label>
NO

$$$$
>  <Binder>
04G01 (VHH, Class 2 Nanobody (anti-IL-17A and IL-17A/F); also called IL17MS04G01; not shown: c-myc, His6 tag) VHH: EVQLVESGGGLVQAGGSQRLSCTASGTIVNIHVMGWYRQAPGKQRELVALIFSGGSADYADSVKGRFTISRDNAKNTVYLEMNSLKAEDTAVYYCAAEIGYYSGGTYYSSEAHWGQGTQVTVSS

>  <Label>
NO

$$$$
>  <Binder>
11A06 (VHH, Class 2 Nanobody (anti-IL-17A and IL-17A/F); not shown: c-myc, His6 tag) VHH: EVQLVESGGGLVQPGESLRLSCKASGFSLDYYALGWFRQAPGKEREGISCITSSDASAYYTDSVKGRFTISRDNSKNTVYLQMNSLKTEDTAIYYCAAALLTCSSYYDAYTYWGQGTQVTVSS

>  <Label>
NO

$$$$
>  <Binder>
13B03 (VHH, Class 4 Nanobody (cross-reactive: anti-IL-17A, IL-17F and IL-17A/F); also called IL17MS13B03; not shown: c-myc, His6 tag) VHH: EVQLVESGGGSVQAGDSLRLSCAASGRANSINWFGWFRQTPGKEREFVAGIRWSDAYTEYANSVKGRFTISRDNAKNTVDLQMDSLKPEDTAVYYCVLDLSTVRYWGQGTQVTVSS

>  <Label>
NO

$$$$
>  <Binder>
04A02 (VHH, Class 2 Nanobody (anti-IL-17A and IL-17A/F); not shown: c-myc, His6 tag) VHH: EVQLVESGGGLVQPGGSLRLSCAASRNINIINYMAWYRQAPGNQRELVAAMTSDATTEYADSVKGRFTISRDIPENTVYLQMNSLKPEDTAVYYCNAKGIWDYLGRRDFGDYWGQGTQVTVSS

>  <Label>
YES

$$$$
>  <Binder>
12A09 (VHH, Class 3 Nanobody (anti-IL-17F); not shown: c-myc, His6 tag) VHH: EVQLVESGGGLVQPGGSLRLSCAASGFTFSSYRMAWVRQAPGKGLEWVSSTSTGGEMTNYADSVKGRFTISRDNAKNTLHLQMNSLKPEDTALYYCAAGTSAGHWSTGGQGTQVTVSS

>  <Label>
YES

$$$$
>  <Binder>
04F09 (VHH, Class 2 Nanobody (anti-IL-17A and IL-17A/F); not shown: c-myc, His6 tag) VHH: EVQLVESGGGLVQPGGSLRLSCAASGRTFSTHAMGWFRQAPGKERDFVAAIRWSDGSSFYADSVKGRFTISRDNAKNAVYLQSNSLKSEDTAVYVCYADVEGPTALHKYWGRGTQVTVSS

>  <Label>
NO

$$$$
>  <Binder>
18B05 (VHH, Class 4 Nanobody (cross-reactive: anti-IL-17A, IL-17F and IL-17A/F); not shown: c-myc, His6 tag) VHH: EVQLVKSGGGLVQPGGSLRLSCAASGGTFSLFAMGWFREAPGKEREFVAAIRWSDGSSYYADSVKGRFTISRDNAKNAVHLQSNSLKSEDTAVYYCYADVQGGLHRYWGQGTQVTVSS

>  <Label>
NO

$$$$
